- assay method text: Lipophilicity, log P of the compound
- Assay type: physicochemical
- experimental context: octanol/water
assay readout: logP

[[record]]
smiles_notation = "NNC(=O)c1cc(-c2ccccc2)nn1Cc1ccc(Cl)nc1"
assay_readout = "logP"
data_value = 2.52

[[record]]
smiles_notation = "COc1ccc(-c2cc(C(=O)NN)n(Cc3ccc(C(C)(C)C)cc3)n2)cc1"
assay_readout = "logP"
data_value = 4.6

[[record]]
smiles_notation = "CC(C)(C)c1ccc(Cn2nc(-c3ccccc3)cc2C(=O)NN)cc1"
assay_readout = "logP"
data_value = 4.49


(P) CC(C)(C)c1ccc(Cn2nc(-c3ccc(Cl)cc3)cc2C(=O)NN)cc1
(Q) COc1ccc(-c2cc(C(=O)NN)n(Cc3ccc(Cl)nc3)n2)cc1
Between item P and item Q , which reported logP is smaller? Give the label of your selection.
Q
(Q: 2.76, P: 4.94)
